Each record here notes measured viability at 24 h, 3.1 µM.
Assay: Cytotoxicity against human SH-SY5Y cells assessed as cell viability at 3.1 uM measured after 24 hrs by MTT assay relative to control
Type: cell-based
Conditions: read-out: Activity
Give the value; after it, write the unit.

Examples with their reported viability at 24 h, 3.1 µM follow.
>>> assayresult("COc1cc2c(cc1O)CCC(C)(CC(=O)N[C@@H](Cc1ccc(O)cc1)C(=O)O)O2 (some centres not stated)")
"89.9%"
>>> assayresult("COc1cc2c(cc1O)CCC(C)(CC(=O)N[C@@H](Cc1ccccc1)C(=O)O)O2 (some centres not stated)")
"93%"
>>> assayresult("COc1cc2c(cc1O)CCC(C)(CC(=O)N[C@@H](C)C(=O)O)O2 (some centres not stated)")
"100%"

Moving on to the next compound.
Query block: Dear colleague, I am looking for the recorded viability at 24 h, 3.1 µM of the following compound: COc1cc2c(cc1O)CCC(C)(CC(N)=O)O2 (configuration not stated)
Result block: 100%

----------
Assay: Cytotoxicity against human SH-SY5Y cells assessed as cell viability at 12.5 uM measured after 2 hrs by MTT assay relative to control
Format: cell-based
Details: read-out: Activity
quantity: viability at 2 h, 12.5 µM

Examples with their reported viability at 2 h, 12.5 µM follow.
>>> assayresult("COc1cc2c(cc1O)CCC(C)(CC(N)C(=O)O)O2 (centres undefined)")
"100%"
>>> assayresult("COc1cc2c(cc1O)CCC(C)(CC(=O)N[C@H](C(=O)O)C(C)C)O2 (some centres undefined)")
"96.4%"
>>> assayresult("COc1cc2c(cc1O)CCC(C)(CCNC(C)=O)O2 (centres undefined)")
"84.8%"

Moving on to the next molecule.
Query block: Dear colleague, I am looking for the recorded viability at 2 h, 12.5 µM of the following molecule: COc1cc2c(cc1O)CCC(C)(CC(=O)N[C@@H](C)C(=O)O)O2 (some centres undefined)
Result block: 85%

----------
Each record here notes measured viability at 2 h, 50 µM.
Assay: Cytotoxicity against human SH-SY5Y cells assessed as cell viability at 50 uM measured after 2 hrs by MTT assay relative to control
Type: cell-based
Conditions: read-out: Activity
Write it as a number; the unit % goes unstated.

>>> assayresult("COc1cc2c(cc1O)CCC(C)(CC(=O)N[C@H](C(=O)O)C(C)C)O2 (stereo not given in full)")
100
>>> assayresult("COc1cc2c(cc1O)CCC(C)(CCNC(C)=O)O2 (stereo not given)")
81.2
>>> assayresult("Cc1c(C)c2c(c(C)c1O)CCC(C)(C(=O)O)O2 (stereo not given)")
92.4
>>> assayresult("COc1cc2c(cc1O)CCC(C)(CC(=O)O)O2 (stereo not given)")
100

Moving on to the next compound.
Query block: Dear colleague, I am looking for the recorded viability at 2 h, 50 µM of the following compound: COc1cc2c(cc1O)CCC(C)(CC(=O)N[C@@H](Cc1ccccc1)C(=O)O)O2 (stereo not given in full)
Result block: 100

----------
Assay: Cytotoxicity against human SH-SY5Y cells assessed as cell viability at 12.5 uM measured after 24 hrs by MTT assay relative to control
Type: cell-based
Conditions: read-out: Activity
Each record here notes measured viability at 24 h, 12.5 µM.
Write it as a number; the unit % goes unstated.

>>> assayresult("COc1cc2c(cc1O)CCC(C)(CC(=O)N[C@@H](Cc1ccccc1)C(=O)O)O2 (stereo partly specified)")
82.3
>>> assayresult("COc1cc2c(cc1O)CCC(C)(CC(=O)N[C@H](C(=O)O)C(C)C)O2 (stereo partly specified)")
82.6
>>> assayresult("COc1cc2c(cc1O)CCC(C)(CC(=O)NCCc1ccc(O)c(O)c1)O2 (stereo unspecified)")
84.2
>>> assayresult("COc1cc2c(cc1O)CCC(C)(CC(=O)N[C@@H](C)C(=O)O)O2 (stereo partly specified)")
100
>>> assayresult("COc1cc2c(cc1O)CCC(C)(CCNC(C)=O)O2 (stereo unspecified)")
83.5

Moving on to the next compound.
Query block: Dear colleague, I am looking for the recorded viability at 24 h, 12.5 µM of the following compound: COc1cc2c(cc1O)CCC(C)(CCNC(=O)C[C@H]1OC(O)[C@H](O)[C@@H](O)[C@@H]1O)O2 (stereo partly specified)
Result block: 90.6

----------
Each record here notes measured IC50.
Test system: SH-SY5Y
Test: Antioxidant activity in human SH-SY5Y cells assessed as inhibition of H2O2-induced DCFH oxidation measured after 1 hr by DCFH-DA dye based fluorescence assay
Format: functional, cell-based

Examples with their reported IC50 follow.
>>> assayresult("COc1cc2c(cc1O)CCC(C)(CC(=O)N[C@@H](CCC(N)=O)C(=O)O)O2 (some centres not stated)")
"78 µM"
>>> assayresult("Cc1c(C)c2c(c(C)c1O)CCC(C)(C(=O)O)O2 (configuration not stated)")
"82.3 µM"
>>> assayresult("COc1cc2c(cc1O)CCC(C)(CC(=O)N1CCC[C@H]1C(=O)O)O2 (some centres not stated)")
"41.4 µM"
>>> assayresult("COc1cc2c(cc1O)CCC(C)(CCNC(=O)/C=C(C)/C=C/C=C(C)/C=C/C1=C(C)CCCC1(C)C)O2 (configuration not stated)")
"> 300 µM"
>>> assayresult("COc1cc2c(cc1O)CCC(C)(CC(=O)N[C@@H](C)C(=O)O)O2 (some centres not stated)")
"92.6 µM"
>>> assayresult("COc1cc2c(cc1O)CCC(C)(C)O2")
"21.7 µM"

Moving on to the next compound.
Query block: Dear colleague, I am looking for the recorded IC50 of the following compound: COc1cc2c(cc1O)CCC(C)(CC(=O)N[C@@H](Cc1ccccc1)C(=O)O)O2 (some centres not stated)
Result block: 44.5 µM

----------
Test: Cytotoxicity against human SH-SY5Y cells assessed as cell viability at 25 uM measured after 24 hrs by MTT assay relative to control
Type: cell-based
Settings: read-out: Activity
Each record here notes measured viability at 24 h, 25 µM.

Examples with their reported viability at 24 h, 25 µM follow.
>>> assayresult("Cc1c(C)c2c(c(C)c1O)CCC(C)(C(=O)O)O2 (stereo unspecified)")
"86.4%"
>>> assayresult("COc1cc2c(cc1O)CCC(C)(CCNC(C)=O)O2 (stereo unspecified)")
"76.2%"

Query block: Dear colleague, I am looking for the recorded viability at 24 h, 25 µM of the following compound: COc1cc2c(cc1O)CCC(C)(CC(=O)N[C@@H](CCC(N)=O)C(=O)O)O2 (stereo partly specified)
Result block: 91.8%

Query block: Dear colleague, I am looking for the recorded viability at 24 h, 25 µM of the following compound: COc1cc2c(cc1O)CCC(C)(CC(=O)N[C@@H](Cc1ccc(O)cc1)C(=O)O)O2 (stereo partly specified)
Result block: 82.7%

Query block: Dear colleague, I am looking for the recorded viability at 24 h, 25 µM of the following compound: COc1cc2c(cc1O)CCC(C)(CC(N)C(=O)O)O2 (stereo unspecified)
Result block: 88.5%

Query block: Dear colleague, I am looking for the recorded viability at 24 h, 25 µM of the following compound: COc1cc2c(cc1O)CCC(C)(CC(=O)N1CCC[C@H]1C(=O)O)O2 (stereo partly specified)
Result block: 95.8%

----------
Experiment: Cytotoxicity against human SH-SY5Y cells assessed as cell viability at 100 uM measured after 2 hrs by MTT assay relative to control
Format: cell-based
Settings: read-out: Activity
Rule: viability at 2 h, 100 µM below 70% gives satisfied, anything at or above gives not satisfied.

A selection of reference data follows.
>>> classlabel("COc1cc2c(cc1O)CCC(C)(CC(N)C(=O)O)O2 (stereo not given)")
"not satisfied"
>>> classlabel("COc1cc2c(cc1O)CCC(C)(CC(=O)N[C@@H](Cc1ccccc1)C(=O)O)O2 (stereo not given in full)")
"not satisfied"
>>> classlabel("COc1cc2c(cc1O)CCC(C)(CC(=O)N[C@@H](CCC(N)=O)C(=O)O)O2 (stereo not given in full)")
"not satisfied"
>>> classlabel("COc1cc2c(cc1O)CCC(C)(CC(N)=O)O2 (stereo not given)")
"satisfied"

// switching to the query molecule
Query block: Does the reported viability at 2 h, 100 µM of the following molecule sit strictly below 70%? COc1cc2c(cc1O)CCC(C)(CCNC(=O)/C=C(C)/C=C/C=C(C)/C=C/C1=C(C)CCCC1(C)C)O2 (stereo not given)
Result block: satisfied

----------
Assay: Cytotoxicity against human SH-SY5Y cells assessed as cell viability at 50 uM measured after 24 hrs by MTT assay relative to control
Type: cell-based
Settings: read-out: Activity
quantity: viability at 24 h, 50 µM (%)
Write it as a number; the unit % goes unstated.

Query block: Dear colleague, I am looking for the recorded viability at 24 h, 50 µM of the following molecule: COc1cc2c(cc1O)CCC(C)(CC(=O)N[C@H](C(=O)O)C(C)C)O2 (stereo partly drawn)
Result block: 79.3

Query block: Dear colleague, I am looking for the recorded viability at 24 h, 50 µM of the following molecule: COc1cc2c(cc1O)CCC(C)(CC(=O)N[C@@H](Cc1c[nH]c3ccccc13)C(=O)O)O2 (stereo partly drawn)
Result block: 92.8

Query block: Dear colleague, I am looking for the recorded viability at 24 h, 50 µM of the following molecule: COc1cc2c(cc1O)CCC(C)(C)O2
Result block: 95.2

Query block: Dear colleague, I am looking for the recorded viability at 24 h, 50 µM of the following molecule: COc1cc2c(cc1O)CCC(C)(CC(=O)O)O2 (stereo not drawn)
Result block: 61

Query block: Dear colleague, I am looking for the recorded viability at 24 h, 50 µM of the following molecule: COc1cc2c(cc1O)CCC(C)(CC(=O)N[C@@H](Cc1ccccc1)C(=O)O)O2 (stereo partly drawn)
Result block: 89.5

Query block: Dear colleague, I am looking for the recorded viability at 24 h, 50 µM of the following molecule: COc1cc2c(cc1O)CCC(C)(CCNC(=O)/C=C(C)/C=C/C=C(C)/C=C/C1=C(C)CCCC1(C)C)O2 (stereo not drawn)
Result block: 91.7

Query block: Dear colleague, I am looking for the recorded viability at 24 h, 50 µM of the following molecule: COc1cc2c(cc1O)CCC(C)(CC(N)=O)O2 (stereo not drawn)
Result block: 99.2

Query block: Dear colleague, I am looking for the recorded viability at 24 h, 50 µM of the following molecule: COc1cc2c(cc1O)CCC(C)(CCNC(C)=O)O2 (stereo not drawn)
Result block: 66.5
